# testedSystem: human ether-à-go-go-related gene (hERG) potassium channel (human, UniProt Q12809);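 further: peak tail current of the secondary pulse compared with the same well before compound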
# Sequence (Q12809 whole entry, looked up): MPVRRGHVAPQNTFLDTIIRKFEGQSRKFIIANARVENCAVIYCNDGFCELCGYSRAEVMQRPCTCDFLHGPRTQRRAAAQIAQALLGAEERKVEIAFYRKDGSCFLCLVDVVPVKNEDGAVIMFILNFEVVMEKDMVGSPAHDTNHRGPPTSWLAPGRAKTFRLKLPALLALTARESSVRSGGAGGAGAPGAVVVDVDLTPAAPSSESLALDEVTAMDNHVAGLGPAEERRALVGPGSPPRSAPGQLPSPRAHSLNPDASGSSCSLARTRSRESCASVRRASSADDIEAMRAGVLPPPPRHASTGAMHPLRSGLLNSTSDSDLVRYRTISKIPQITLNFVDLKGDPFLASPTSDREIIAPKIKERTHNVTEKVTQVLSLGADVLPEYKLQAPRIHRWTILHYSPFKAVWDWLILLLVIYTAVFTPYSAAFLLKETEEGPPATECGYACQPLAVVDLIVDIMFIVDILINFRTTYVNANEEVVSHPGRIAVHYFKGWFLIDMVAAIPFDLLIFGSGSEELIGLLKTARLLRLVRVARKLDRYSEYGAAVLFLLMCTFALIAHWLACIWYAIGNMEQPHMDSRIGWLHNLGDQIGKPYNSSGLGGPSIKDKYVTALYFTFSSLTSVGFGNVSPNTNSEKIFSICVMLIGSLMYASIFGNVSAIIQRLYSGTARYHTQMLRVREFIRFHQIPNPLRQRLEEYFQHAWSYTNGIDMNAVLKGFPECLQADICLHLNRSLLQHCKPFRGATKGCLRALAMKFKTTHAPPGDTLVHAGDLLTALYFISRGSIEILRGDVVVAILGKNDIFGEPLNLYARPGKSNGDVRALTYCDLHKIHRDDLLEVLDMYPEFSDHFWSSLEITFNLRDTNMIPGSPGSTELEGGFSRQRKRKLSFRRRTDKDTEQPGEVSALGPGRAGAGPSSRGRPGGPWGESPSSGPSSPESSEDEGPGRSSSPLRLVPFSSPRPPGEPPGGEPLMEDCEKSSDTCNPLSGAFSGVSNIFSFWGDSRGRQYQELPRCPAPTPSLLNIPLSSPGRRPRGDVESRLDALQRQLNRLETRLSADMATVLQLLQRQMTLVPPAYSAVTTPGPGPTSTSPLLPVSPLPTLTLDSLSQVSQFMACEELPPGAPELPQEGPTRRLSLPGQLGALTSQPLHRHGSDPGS
# experimentalProtocol: primary screen, population patch clamp on CHO cells stably expressing hERG; higher = less effect of the substance
The whole screen tested about 310,000 compounds, of which about 14,000 (4.5%) showed an effect of 50% or more. Effects have a minus sign here. The list comes from a sample in which strong results are over-represented; it also holds close analogues and randomly drawn compounds.
observable: hERG current change (%, negative = inhibition) at 10uM (%)
Write down the numeric answer in % and omit the unit.

# count of solved cases: 4
>>> reportedresult("COc1ccccc1C(=O)NNC1=NS(=O)(=O)c2ccccc21")
20.3
>>> reportedresult("CC1=C(C(=O)Nc2ccccc2)C(c2ccco2)NC(=O)N1 (stereo not drawn)")
14.5
>>> reportedresult("CC(NC(=O)Nc1nnc(C(F)(F)F)s1)(C(F)(F)F)C(F)(F)F")
-7.61
>>> reportedresult("O=C(COc1ccc(F)cc1)N(Cc1cccs1)C1CCS(=O)(=O)C1 (stereo not drawn)")
-33.4

For the next question, use this compound.
O=[N+]([O-])c1ccccc1S(=O)(=O)NCCc1ccncc1 yielded hERG current change (%, negative = inhibition) at 10uM of 14.9
